Please provide measured DR/DR LNA for the entries that follow.
Assay: Probe fluorescence ratio response to linolenic acid relative to ADIFAB2
Type: binding
Details: response relative to ADIFAB2
In your answer, state the number alone without any accompanying words.

Challenge: // DR/DR LNA lookup, key: 51F1, 72A (protein, listed as Rattus norvegicus, PEPTIDE (1)...(131) wild-type rat intestinal fatty acid binding protein) AFDGTWKVDRNENYEKFMEKMGINVVKRKLGAHDNLKLTITQEGNKFTVKFSSNFRNIDVVFELGVDFAYSAADGTELTGTWTMEGNKLVGKFKRVDNGKELIAVREISGNELIQTYTYEGVEAKRIFKKE
Response given: 1.60

Challenge: // DR/DR LNA lookup, key: 78I1, 72A (protein, listed as Rattus norvegicus, PEPTIDE (1)...(131) wild-type rat intestinal fatty acid binding protein) AFDGTWKVDRNENYEKFMEKMGINVVKRKLGAHDNLKLTITQEGNKFTVKESSNFRNIDVVFELGVDFAYSAADGTEITGTWTMEGNKLVGKFKRVDNGKELIAVREISGNELIQTYTYEGVEAKRIFKKE
Response given: 1.66

Challenge: // DR/DR LNA lookup, key: 51S1, 72A (protein, listed as Rattus norvegicus, PEPTIDE (1)...(131) wild-type rat intestinal fatty acid binding protein) AFDGTWKVDRNENYEKFMEKMGINVVKRKLGAHDNLKLTITQEGNKFTVKSSSNFRNIDVVFELGVDFAYSAADGTELTGTWTMEGNKLVGKFKRVDNGKELIAVREISGNELIQTYTYEGVEAKRIFKKE
Response given: 1.66

Challenge: // DR/DR LNA lookup, key: 104Y1, 72A (protein, listed as Rattus norvegicus, PEPTIDE (1)...(131) wild-type rat intestinal fatty acid binding protein) AFDGTWKVDRNENYEKFMEKMGINVVKRKLGAHDNLKLTITQEGNKFTVKESSNFRNIDVVFELGVDFAYSAADGTELTGTWTMEGNKLVGKFKRVDNGKELIYVREISGNELIQTYTYEGVEAKRIFKKE
Response given: 0.28

Challenge: // DR/DR LNA lookup, key: 51G1, 72A (protein, listed as Rattus norvegicus, PEPTIDE (1)...(131) wild-type rat intestinal fatty acid binding protein) AFDGTWKVDRNENYEKFMEKMGINVVKRKLGAHDNLKLTITQEGNKFTVKGSSNFRNIDVVFELGVDFAYSAADGTELTGTWTMEGNKLVGKFKRVDNGKELIAVREISGNELIQTYTYEGVEAKRIFKKE
Response given: 1.76

Challenge: // DR/DR LNA lookup, key: 14L 18L 31W 73W 117L 72A (protein, listed as Rattus norvegicus, PEPTIDE (1)...(131) wild-type rat intestinal fatty acid binding protein) AFDGTWKVDRNENLEKFLEKMGINVVKRKLWAHDNLKLTITQEGNKFTVKESSNFRNIDVVFELGVDFAYSAWDGTELTGTWTMEGNKLVGKFKRVDNGKELIAVREISGNELIQTLTYEGVEAKRIFKKE
Response given: 1.640

Challenge: // DR/DR LNA lookup, key: 72T 73W 74S (protein, listed as Rattus norvegicus, PEPTIDE (1)...(131) wild-type rat intestinal fatty acid binding protein) AFDGTWKVDRNENYEKFMEKMGINVVKRKLGAHDNLKLTITQEGNKFTVKESSNFRNIDVVFELGVDFAYSTWSGTELTGTWTMEGNKLVGKFKRVDNGKELIAVREISGNELIQTYTYEGVEAKRIFKKE
Response given: 4.826

Challenge: // DR/DR LNA lookup, key: 72T 74I (protein, listed as Rattus norvegicus, PEPTIDE (1)...(131) wild-type rat intestinal fatty acid binding protein) AFDGTWKVDRNENYEKFMEKMGINVVKRKLGAHDNLKLTITQEGNKFTVKESSNFRNIDVVFELGVDFAYSTAIGTELTGTWTMEGNKLVGKFKRVDNGKELIAVREISGNELIQTYTYEGVEAKRIFKKE
Response given: 3.169

Challenge: // DR/DR LNA lookup, key: 117Y, 72A (protein, listed as Rattus norvegicus, PEPTIDE (1)...(131) wild-type rat intestinal fatty acid binding protein) AFDGTWKVDRNENYEKFMEKMGINVVKRKLGAHDNLKLTITQEGNKFTVKESSNFRNIDVVFELGVDFAYSAADGTELTGTWTMEGNKLVGKFKRVDNGKELIAVREISGNELIQTYTYEGVEAKRIFKKE
Response given: 1.40

Challenge: // DR/DR LNA lookup, key: 18I 31V 55V 73V 72A (protein, listed as Rattus norvegicus, PEPTIDE (1)...(131) wild-type rat intestinal fatty acid binding protein) AFDGTWKVDRNENYEKFIEKMGINVVKRKLVAHDNLKLTITQEGNKFTVKESSNVRNIDVVFELGVDFAYSAVDGTELTGTWTMEGNKLVGKFKRVDNGKELIAVREISGNELIQTYTYEGVEAKRIFKKE
Response given: 1.179

Challenge: // DR/DR LNA lookup, key: 72E 73V 74A (protein, listed as Rattus norvegicus, PEPTIDE (1)...(131) wild-type rat intestinal fatty acid binding protein) AFDGTWKVDRNENYEKFMEKMGINVVKRKLGAHDNLKLTITQEGNKFTVKESSNFRNIDVVFELGVDFAYSEVAGTELTGTWTMEGNKLVGKFKRVDNGKELIAVREISGNELIQTYTYEGVEAKRIFKKE
Response given: 0.784
